Test system: Mycobacterium tuberculosis
Test: Antituberculosis activity against Mycobacterium tuberculosis H37Rv assessed as complete growth inhibition at 20 uM after 5 days
Type: functional
Details: 120 h
value type: inhibition at 20 µM

A selection of reference data follows.
> print(dat)
                                   compound           value.type  result
1  O=C(O)CC1CCCCN1c1nc(NCc2ccc(F)cc2)c2ccccc2n1 (centres undefined)  inhibition at 20 µM   < 30%
2      Fc1ccc(Nc2nc(N3CCCCC3)nc3ccccc23)cc1  inhibition at 20 µM   < 30%
3      Fc1ccc(CNc2nc(N3CCCC3)nc3ccccc23)cc1  inhibition at 20 µM     97%
4     Fc1cccc(CNc2nc(N3CCCCC3)nc3ccccc23)c1  inhibition at 20 µM     98%
5  Nc1ccc(N2CCN(c3nc(NCc4ccc(F)cc4)c4ccccc4n3)CC2)cc1  inhibition at 20 µM     94%
6      Fc1ccc(CNc2cc(N3CCCCC3)nc3ccnn23)cc1  inhibition at 20 µM   < 30%

q: I would be grateful if you could share the reported inhibition at 20 µM for `c1ccc2c(NCC3CCCCC3)nc(N3CCCCC3)nc2c1` .
a: 99%

q: I would be grateful if you could share the reported inhibition at 20 µM for `FC(F)(F)c1ccc(CNc2nc(N3CCCCC3)nc3ccccc23)cc1` .
a: 99%

q: I would be grateful if you could share the reported inhibition at 20 µM for `OCCN(CCO)c1nc(NCc2ccc(F)cc2)c2ccccc2n1` .
a: < 30%
